# target-system: Mu-type opioid receptor (Rattus norvegicus)
# Sequence (P33535 whole entry): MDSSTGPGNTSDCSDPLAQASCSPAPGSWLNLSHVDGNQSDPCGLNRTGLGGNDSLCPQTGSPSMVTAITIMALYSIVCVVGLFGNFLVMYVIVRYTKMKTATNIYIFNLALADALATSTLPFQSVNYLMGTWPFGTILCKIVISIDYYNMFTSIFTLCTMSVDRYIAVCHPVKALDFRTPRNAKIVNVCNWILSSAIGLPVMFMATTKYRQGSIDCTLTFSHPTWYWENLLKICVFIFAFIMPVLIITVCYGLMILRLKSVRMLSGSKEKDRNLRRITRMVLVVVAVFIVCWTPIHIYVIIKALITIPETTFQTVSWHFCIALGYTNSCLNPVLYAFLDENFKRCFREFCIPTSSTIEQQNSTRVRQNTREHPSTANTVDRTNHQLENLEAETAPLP
# experimental-protocol: In vitro binding affinity at opioid receptor mu 1 was determined in C6 rat glioma cells using [3H]DAMGO
property-label: Ki (nM)
Just the number in nM, nothing appended.

Known results for compounds:
[
  {
    "compound": "CO[C@@]12CCC(=O)[C@]3(C)Oc4c(O)ccc5c4[C@@]31CCN(C)[C@@H]2C5",
    "units-text": "nM",
    "Ki": 0.023
  },
  {
    "compound": "O=C1CC[C@@]2(OCCCc3ccccc3)[C@H]3Cc4ccc(O)c5c4[C@@]2(CCN3CC2CCCO2)[C@H]1O5 (stereo not given in full)",
    "units-text": "nM",
    "Ki": 0.2
  },
  {
    "compound": "CCCN1CC[C@]23c4c5ccc(O)c4O[C@H]2C(=O)CC[C@@]3(OCCCc2ccccc2)[C@H]1C5",
    "units-text": "nM",
    "Ki": 0.09
  },
  {
    "compound": "COc1ccc2c3c1O[C@H]1C(=O)CC[C@@]4(OCCCc5ccccc5)[C@@H](C2)N(CC2CCCO2)CC[C@]314 (stereo not given in full)",
    "units-text": "nM",
    "Ki": 3.8
  }
]

**Q:** Any idea what its Ki is? The compound is O=C1CC[C@@]2(OCCCc3ccccc3)[C@H]3Cc4ccc(O)c5c4[C@@]2(CCN3CC2CCC2)[C@H]1O5
**A:** 0.25

----------
# ED50 values compiled below
# target-system: Opioid receptors; mu and delta (Mus musculus) (UniProt P42866+P32300)
# Sequence (P32300 whole entry, looked up): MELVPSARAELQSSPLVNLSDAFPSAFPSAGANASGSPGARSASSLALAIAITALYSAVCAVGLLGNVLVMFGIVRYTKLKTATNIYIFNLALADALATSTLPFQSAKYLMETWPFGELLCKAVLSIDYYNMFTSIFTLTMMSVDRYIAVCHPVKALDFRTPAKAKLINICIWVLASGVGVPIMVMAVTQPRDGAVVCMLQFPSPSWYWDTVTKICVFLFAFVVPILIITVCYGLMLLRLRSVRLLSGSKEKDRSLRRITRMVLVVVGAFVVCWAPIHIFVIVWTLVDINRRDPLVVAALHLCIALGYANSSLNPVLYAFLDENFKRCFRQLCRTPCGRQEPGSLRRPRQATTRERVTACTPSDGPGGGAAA
# Sequence (P42866 whole entry, looked up): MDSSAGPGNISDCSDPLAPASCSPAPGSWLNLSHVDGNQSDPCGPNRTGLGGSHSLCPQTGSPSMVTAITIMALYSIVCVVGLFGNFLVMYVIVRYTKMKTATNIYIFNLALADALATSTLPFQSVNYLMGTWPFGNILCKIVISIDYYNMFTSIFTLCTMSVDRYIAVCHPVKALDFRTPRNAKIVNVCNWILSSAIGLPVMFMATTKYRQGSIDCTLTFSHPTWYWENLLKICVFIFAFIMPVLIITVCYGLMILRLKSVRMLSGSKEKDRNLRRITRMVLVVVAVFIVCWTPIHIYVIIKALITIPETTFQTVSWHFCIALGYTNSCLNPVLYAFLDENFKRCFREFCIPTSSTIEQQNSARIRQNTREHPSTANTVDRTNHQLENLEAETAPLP
# experimental-protocol: In vivo antinociceptive activity was determined upon subcutaneous administration in the mouse paraphenylquinone writhing test
# Format: functional, organism-based
Just the number in µg/kg, nothing appended.

Known results for molecules:
[
  {
    "molecule": "CN1CC[C@]23c4c5ccc(O)c4O[C@H]2[C@@H](O)C=C[C@H]3[C@H]1C5 [MORPHINE]",
    "property-label": "ED50",
    "units-text": "µg/kg",
    "reported-measurement": 400
  },
  {
    "molecule": "O=C1CC[C@@]2(OCCCc3ccccc3)[C@H]3Cc4ccc(O)c5c4[C@@]2(CCN3CC2CCCO2)[C@H]1O5 (stereo not given in full)",
    "property-label": "ED50",
    "units-text": "µg/kg",
    "reported-measurement": 2
  },
  {
    "molecule": "CCCN1CC[C@]23c4c5ccc(O)c4O[C@H]2C(=O)CC[C@@]3(OCCCc2ccccc2)[C@H]1C5",
    "property-label": "ED50",
    "units-text": "µg/kg",
    "reported-measurement": 0.9
  },
  {
    "molecule": "CO[C@@]12CCC(=O)[C@]3(C)Oc4c(O)ccc5c4[C@@]31CCN(C)[C@@H]2C5",
    "property-label": "ED50",
    "units-text": "µg/kg",
    "reported-measurement": 9
  }
]

Let us move to another entry and its ED50.
**Q:** Any idea what its ED50 is? The molecule is O=C1CC[C@@]2(OCCCc3ccccc3)[C@H]3Cc4ccc(O)c5c4[C@@]2(CCN3CC2CC2)[C@H]1O5
**A:** 6

----------
Ki tested on Kappa-type opioid receptor (Homo sapiens, UniProt P41145): recorded values
Sequence (P41145 whole entry): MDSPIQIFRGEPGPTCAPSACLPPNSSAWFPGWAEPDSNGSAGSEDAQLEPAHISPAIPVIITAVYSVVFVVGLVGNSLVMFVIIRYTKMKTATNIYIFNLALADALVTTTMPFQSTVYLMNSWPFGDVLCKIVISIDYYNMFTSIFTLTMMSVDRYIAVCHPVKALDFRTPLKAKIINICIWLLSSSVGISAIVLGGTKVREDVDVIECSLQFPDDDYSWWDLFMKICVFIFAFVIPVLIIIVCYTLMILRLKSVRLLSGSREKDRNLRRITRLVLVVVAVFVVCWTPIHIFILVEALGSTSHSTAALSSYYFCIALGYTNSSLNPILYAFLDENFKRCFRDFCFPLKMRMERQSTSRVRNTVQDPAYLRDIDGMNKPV
Just the number in nM, nothing appended.

Known results for molecules:
[
  {
    "molecule": "CO[C@@]12CCC(=O)[C@]3(C)Oc4c(O)ccc5c4[C@@]31CCN(C)[C@@H]2C5",
    "Ki [nM]": 304
  },
  {
    "molecule": "CCCN1CC[C@]23c4c5ccc(O)c4O[C@H]2C(=O)CC[C@@]3(OCCCc2ccccc2)[C@H]1C5",
    "Ki [nM]": 0.37
  },
  {
    "molecule": "O=C1CC[C@@]2(OCCCc3ccccc3)[C@H]3Cc4ccc(O)c5c4[C@@]2(CCN3CC2CCCO2)[C@H]1O5 (some centres not stated)",
    "Ki [nM]": 0.08
  },
  {
    "molecule": "C=CCN1CC[C@]23c4c5ccc(O)c4O[C@H]2C(=O)CC[C@@]3(OCCCc2ccccc2)[C@H]1C5",
    "Ki [nM]": 0.11
  },
  {
    "molecule": "O=C1CC[C@@]2(OCCCc3ccccc3)[C@H]3Cc4ccc(O)c5c4[C@@]2(CCN3CC2CC2)[C@H]1O5",
    "Ki [nM]": 0.41
  },
  {
    "molecule": "O=C1CC[C@@]2(OCCCc3ccccc3)[C@H]3Cc4ccc(O)c5c4[C@@]2(CCN3CC2CCC2)[C@H]1O5",
    "Ki [nM]": 0.49
  }
]

**Q:** Any idea what its Ki is? The molecule is COc1ccc2c3c1O[C@H]1C(=O)CC[C@@]4(OCCCc5ccccc5)[C@@H](C2)N(CC2CCCO2)CC[C@]314 (some centres not stated)
**A:** 61.4
